Cited source for all entries: ChEMBL document CHEMBL4428091

assay: Half life in mouse microsomes; format: ADME, Microsome
# half-life per entry
Respond with the bare value in min.

Use the examples below as a reference point.
| molSmiles | half-life, min |
| --- | --- |
| CCN1CCN(c2ccc(-c3n[nH]c4cc([C@@H]5C[C@@]56C(=O)Nc5ccc(OC)cc56)ccc34)cc2)CC1 | 15 |
| COc1ccc2c(c1)C(=Cc1ccc3c(-c4ccc(N5CCN(C)CC5)nc4)n[nH]c3c1)C(=O)N2 | 4 |

// below: half-life requested for another compound
Quickly give me recorded half-life for COc1ccc2c(c1)[C@]1(C[C@H]1c1ccc3c(-c4ccc(N5CCN(CCO)CC5)cc4)n[nH]c3c1)C(=O)N2
28

====

test: Cmax in mouse at 25 mg/kg, po; assay type: ADME, organism-based; set-up: dose 25 mg/kg, route oral; details: in vivo, read-out: Cmax
Under this convention, satisfied denotes Cmax strictly below 200 ng/mL and not satisfied denotes Cmax at or above 200 ng/mL.

Determine whether this molecule shows Cmax lower than 200 ng/mL (ties excluded): COc1ccc2c(c1)[C@]1(C[C@H]1c1ccc3c(-c4ccc(N5CCN(CCO)CC5)cc4)n[nH]c3c1)C(=O)N2
not satisfied

Determine whether this molecule shows Cmax lower than 200 ng/mL (ties excluded): COc1ccc2c(c1)[C@]1(C[C@H]1c1ccc3c(-c4ccc(N5C[C@@H](C)N[C@@H](C)C5)cc4)n[nH]c3c1)C(=O)N2
satisfied

Determine whether this molecule shows Cmax lower than 200 ng/mL (ties excluded): COc1ccc2c(c1)[C@]1(C[C@H]1c1ccc3c(-c4ccc(N5CCN(C)CC5)cc4)n[nH]c3c1)C(=O)N2
not satisfied

Determine whether this molecule shows Cmax lower than 200 ng/mL (ties excluded): CCN1CCN(c2ccc(-c3n[nH]c4cc([C@@H]5C[C@@]56C(=O)Nc5ccc(OC)cc56)ccc34)cc2)CC1
not satisfied

Determine whether this molecule shows Cmax lower than 200 ng/mL (ties excluded): COc1ccc2c(c1)[C@]1(C[C@H]1c1ccc3c(-c4ccc(N5CCN(C)CC5)nc4)n[nH]c3c1)C(=O)N2
satisfied

====

# AUC per entry
test: AUC in rat at 1 mg/kg, iv; type: ADME, organism-based; conditions: in vivo
Respond with the bare value in ng·h/mL.

Use the examples below as a reference point.
| molSmiles | quantity | readoutUnit | readoutNumber |
| --- | --- | --- | --- |
| CN1CCN(c2ccc(/C=C/c3n[nH]c4cc(/C=C5/C(=O)Nc6ccccc65)ccc34)cn2)CC1 | AUC | ng·h/mL | 170 |
| COc1ccc2c(c1)[C@]1(C[C@H]1c1ccc3c(-c4ccc(N5CCN(CCO)CC5)cc4)n[nH]c3c1)C(=O)N2 | AUC | ng·h/mL | 220 |
| COc1ccc2c(c1)[C@]1(C[C@H]1c1ccc3c(/C=C/c4ccc(N5CCN(C)CC5)nc4)n[nH]c3c1)C(=O)N2 | AUC | ng·h/mL | 330 |
| CCN1CCN(c2ccc(-c3n[nH]c4cc([C@@H]5C[C@@]56C(=O)Nc5ccc(OC)cc56)ccc34)cc2)CC1 | AUC | ng·h/mL | 310 |
| COc1ccc2c(c1)[C@]1(C[C@H]1c1ccc3c(-c4ccc(N5CCN(C)CC5)cc4)n[nH]c3c1)C(=O)N2 | AUC | ng·h/mL | 270 |

Quickly give me recorded AUC for COc1ccc2c(c1)[C@]1(C[C@H]1c1ccc3c(-c4ccc(N5CCN(C)CC5)nc4)n[nH]c3c1)C(=O)N2
270

Quickly give me recorded AUC for COc1ccc2c(c1)C(=Cc1ccc3c(-c4ccc(N5CCN(C)CC5)nc4)n[nH]c3c1)C(=O)N2
94

====

# inhibition at 1 µM per entry
target: CYP2C9 (Homo sapiens, UniProt P11712); experiment: Inhibition of CYP2C9 (unknown origin) at 1 uM; type: ADME
Sequence (P11712 whole entry): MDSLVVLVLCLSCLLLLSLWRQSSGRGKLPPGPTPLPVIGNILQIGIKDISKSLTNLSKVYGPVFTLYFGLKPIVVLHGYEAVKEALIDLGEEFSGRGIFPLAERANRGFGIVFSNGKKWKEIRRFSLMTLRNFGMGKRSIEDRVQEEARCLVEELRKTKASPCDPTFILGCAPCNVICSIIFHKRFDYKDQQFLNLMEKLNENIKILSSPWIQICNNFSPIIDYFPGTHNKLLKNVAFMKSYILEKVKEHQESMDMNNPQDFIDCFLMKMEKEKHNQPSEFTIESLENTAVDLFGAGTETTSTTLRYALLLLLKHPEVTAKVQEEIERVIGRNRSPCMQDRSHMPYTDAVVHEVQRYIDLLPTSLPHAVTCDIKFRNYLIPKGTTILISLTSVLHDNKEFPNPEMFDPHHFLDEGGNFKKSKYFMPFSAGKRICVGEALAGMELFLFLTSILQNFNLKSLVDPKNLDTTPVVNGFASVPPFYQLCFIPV
Respond with the bare value in %.

Use the examples below as a reference point.
| molSmiles | inhibition at 1 µM / % |
| --- | --- |
| CCN1CCN(c2ccc(-c3n[nH]c4cc([C@@H]5C[C@@]56C(=O)Nc5ccc(OC)cc56)ccc34)cc2)CC1 | 37 |
| COc1ccc2c(c1)[C@]1(C[C@H]1c1ccc3c(/C=C/c4ccc(N5CCN(C)CC5)nc4)n[nH]c3c1)C(=O)N2 | 73 |
| COc1ccc2c(c1)C(=Cc1ccc3c(-c4ccc(N5CCN(C)CC5)nc4)n[nH]c3c1)C(=O)N2 | 60 |
| COc1ccc2c(c1)[C@]1(C[C@H]1c1ccc3c(-c4ccc(N5CCN(C)CC5)cc4)n[nH]c3c1)C(=O)N2 | 35 |
| COc1ccc2c(c1)[C@]1(C[C@H]1c1ccc3c(-c4ccc(N5CCN(C)CC5)nc4)n[nH]c3c1)C(=O)N2 | 34 |
| COc1ccc2c(c1)[C@]1(C[C@H]1c1ccc3c(-c4ccc(N5C[C@@H](C)N[C@@H](C)C5)cc4)n[nH]c3c1)C(=O)N2 | 44 |

Fill: inhibition at 1 µM (CYP2C9 (Homo sapiens, UniProt P11712)) for this compound CN1CCN(c2ccc(/C=C/c3n[nH]c4cc(/C=C5/C(=O)Nc6ccccc65)ccc34)cn2)CC1
67

Fill: inhibition at 1 µM (CYP2C9 (Homo sapiens, UniProt P11712)) for this compound COc1ccc2c(c1)[C@]1(C[C@H]1c1ccc3c(-c4ccc(N5CCN(CCO)CC5)cc4)n[nH]c3c1)C(=O)N2
41

====

assay: AUC in rat at 5 mg/kg, po; type: ADME, organism-based; conditions: in vivo, read-out: AUC
Label satisfied when AUC is at or above 100 ng·h/mL; otherwise label not satisfied.

Record COc1ccc2c(c1)C(=Cc1ccc3c(-c4ccc(N5CCN(C)CC5)nc4)n[nH]c3c1)C(=O)N2 ; criterion: AUC no lower than 100 ng·h/mL. Met?
not satisfied

Record COc1ccc2c(c1)[C@]1(C[C@H]1c1ccc3c(-c4ccc(N5CCN(C)CC5)nc4)n[nH]c3c1)C(=O)N2 ; criterion: AUC no lower than 100 ng·h/mL. Met?
satisfied

Record CCN1CCN(c2ccc(-c3n[nH]c4cc([C@@H]5C[C@@]56C(=O)Nc5ccc(OC)cc56)ccc34)cc2)CC1 ; criterion: AUC no lower than 100 ng·h/mL. Met?
satisfied

Record COc1ccc2c(c1)[C@]1(C[C@H]1c1ccc3c(-c4ccc(N5CCN(CCO)CC5)cc4)n[nH]c3c1)C(=O)N2 ; criterion: AUC no lower than 100 ng·h/mL. Met?
satisfied

Record COc1ccc2c(c1)[C@]1(C[C@H]1c1ccc3c(-c4ccc(N5CCN(C)CC5)cc4)n[nH]c3c1)C(=O)N2 ; criterion: AUC no lower than 100 ng·h/mL. Met?
satisfied

Record COc1ccc2c(c1)[C@]1(C[C@H]1c1ccc3c(/C=C/c4ccc(N5CCN(C)CC5)nc4)n[nH]c3c1)C(=O)N2 ; criterion: AUC no lower than 100 ng·h/mL. Met?
satisfied

====

experiment: Half life in rat at 1 mg/kg, iv; type: ADME, organism-based; settings: in vivo
# half-life per entry
Respond with the bare value in h.

Use the examples below as a reference point.
| molSmiles | readoutUnit | half-life |
| --- | --- | --- |
| CCN1CCN(c2ccc(-c3n[nH]c4cc([C@@H]5C[C@@]56C(=O)Nc5ccc(OC)cc56)ccc34)cc2)CC1 | h | 1.6 |
| COc1ccc2c(c1)[C@]1(C[C@H]1c1ccc3c(-c4ccc(N5CCN(CCO)CC5)cc4)n[nH]c3c1)C(=O)N2 | h | 1.4 |

// below: half-life requested for another molecule
Quickly give me recorded half-life for COc1ccc2c(c1)[C@]1(C[C@H]1c1ccc3c(-c4ccc(N5CCN(C)CC5)nc4)n[nH]c3c1)C(=O)N2
1.6

====

target: Vascular endothelial growth factor receptor 2 (Homo sapiens, UniProt P35968)
Sequence (P35968 whole entry): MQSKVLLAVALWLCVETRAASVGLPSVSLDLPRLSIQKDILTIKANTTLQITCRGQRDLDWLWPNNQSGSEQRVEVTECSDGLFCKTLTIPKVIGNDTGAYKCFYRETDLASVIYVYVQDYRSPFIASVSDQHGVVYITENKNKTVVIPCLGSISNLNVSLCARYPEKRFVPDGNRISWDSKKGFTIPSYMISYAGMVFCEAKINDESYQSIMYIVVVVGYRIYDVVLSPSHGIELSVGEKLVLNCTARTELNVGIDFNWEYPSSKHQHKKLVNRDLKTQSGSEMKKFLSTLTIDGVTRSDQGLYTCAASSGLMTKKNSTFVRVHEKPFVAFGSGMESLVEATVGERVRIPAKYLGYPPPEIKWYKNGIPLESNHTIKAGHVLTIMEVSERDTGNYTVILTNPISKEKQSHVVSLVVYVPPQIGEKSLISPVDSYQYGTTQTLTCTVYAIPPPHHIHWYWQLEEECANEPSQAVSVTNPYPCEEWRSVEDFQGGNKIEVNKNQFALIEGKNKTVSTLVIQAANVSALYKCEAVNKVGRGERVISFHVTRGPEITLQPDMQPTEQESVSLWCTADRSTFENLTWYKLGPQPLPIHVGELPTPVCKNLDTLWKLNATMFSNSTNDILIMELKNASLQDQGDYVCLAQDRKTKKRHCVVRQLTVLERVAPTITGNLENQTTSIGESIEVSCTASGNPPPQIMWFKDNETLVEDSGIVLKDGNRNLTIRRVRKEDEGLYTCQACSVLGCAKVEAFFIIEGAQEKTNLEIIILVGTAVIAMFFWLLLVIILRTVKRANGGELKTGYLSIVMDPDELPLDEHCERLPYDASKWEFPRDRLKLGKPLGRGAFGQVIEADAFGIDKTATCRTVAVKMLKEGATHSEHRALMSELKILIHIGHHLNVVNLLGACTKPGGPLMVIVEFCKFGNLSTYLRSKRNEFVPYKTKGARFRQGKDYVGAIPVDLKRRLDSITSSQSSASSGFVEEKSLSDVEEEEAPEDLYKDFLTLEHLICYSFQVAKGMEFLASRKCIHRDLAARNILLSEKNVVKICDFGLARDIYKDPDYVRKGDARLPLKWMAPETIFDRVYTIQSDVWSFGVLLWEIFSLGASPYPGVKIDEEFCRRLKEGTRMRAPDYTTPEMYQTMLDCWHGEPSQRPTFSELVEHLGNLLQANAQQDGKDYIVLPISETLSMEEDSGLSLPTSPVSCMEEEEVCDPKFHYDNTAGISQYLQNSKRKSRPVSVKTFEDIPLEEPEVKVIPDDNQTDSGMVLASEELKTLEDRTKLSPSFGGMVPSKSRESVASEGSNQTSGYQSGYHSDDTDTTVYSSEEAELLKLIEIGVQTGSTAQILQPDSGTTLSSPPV
# IC50 per entry
Respond with the bare value in µM.

| molSmiles | IC50 / µM |
| --- | --- |
| COc1ccc2c(c1)C(=Cc1ccc3c(-c4ccc(N5CCN(C)CC5)nc4)n[nH]c3c1)C(=O)N2 | 0.63 |

Quickly give me recorded IC50 for COc1ccc2c(c1)[C@]1(C[C@H]1c1ccc3c(-c4ccc(N5CCN(C)CC5)cc4)n[nH]c3c1)C(=O)N2
9.4

====

test: Half life in mouse microsomes; assay type: ADME, Microsome
quantity: half-life (min)
Respond with the bare value in min.

| molSmiles | half-life / min |
| --- | --- |
| COc1ccc2c(c1)[C@]1(C[C@H]1c1ccc3c(-c4ccc(N5CCN(C)CC5)cc4)n[nH]c3c1)C(=O)N2 | 9 |
| COc1ccc2c(c1)[C@]1(C[C@H]1c1ccc3c(/C=C/c4ccc(N5CCN(C)CC5)nc4)n[nH]c3c1)C(=O)N2 | 9 |

Quickly give me recorded half-life for CN1CCN(c2ccc(/C=C/c3n[nH]c4cc(/C=C5/C(=O)Nc6ccccc65)ccc34)cn2)CC1
4

Quickly give me recorded half-life for COc1ccc2c(c1)[C@]1(C[C@H]1c1ccc3c(-c4ccc(N5C[C@@H](C)N[C@@H](C)C5)cc4)n[nH]c3c1)C(=O)N2
43

Quickly give me recorded half-life for COc1ccc2c(c1)[C@]1(C[C@H]1c1ccc3c(-c4ccc(N5CCN(C)CC5)nc4)n[nH]c3c1)C(=O)N2
8
